Target: HBV polymerase (Hepatitis B virus genotype A2 subtype adw2, UniProt P03159)
Construct: made in house; host or cells: E. coli
Sequence (P03159 whole entry): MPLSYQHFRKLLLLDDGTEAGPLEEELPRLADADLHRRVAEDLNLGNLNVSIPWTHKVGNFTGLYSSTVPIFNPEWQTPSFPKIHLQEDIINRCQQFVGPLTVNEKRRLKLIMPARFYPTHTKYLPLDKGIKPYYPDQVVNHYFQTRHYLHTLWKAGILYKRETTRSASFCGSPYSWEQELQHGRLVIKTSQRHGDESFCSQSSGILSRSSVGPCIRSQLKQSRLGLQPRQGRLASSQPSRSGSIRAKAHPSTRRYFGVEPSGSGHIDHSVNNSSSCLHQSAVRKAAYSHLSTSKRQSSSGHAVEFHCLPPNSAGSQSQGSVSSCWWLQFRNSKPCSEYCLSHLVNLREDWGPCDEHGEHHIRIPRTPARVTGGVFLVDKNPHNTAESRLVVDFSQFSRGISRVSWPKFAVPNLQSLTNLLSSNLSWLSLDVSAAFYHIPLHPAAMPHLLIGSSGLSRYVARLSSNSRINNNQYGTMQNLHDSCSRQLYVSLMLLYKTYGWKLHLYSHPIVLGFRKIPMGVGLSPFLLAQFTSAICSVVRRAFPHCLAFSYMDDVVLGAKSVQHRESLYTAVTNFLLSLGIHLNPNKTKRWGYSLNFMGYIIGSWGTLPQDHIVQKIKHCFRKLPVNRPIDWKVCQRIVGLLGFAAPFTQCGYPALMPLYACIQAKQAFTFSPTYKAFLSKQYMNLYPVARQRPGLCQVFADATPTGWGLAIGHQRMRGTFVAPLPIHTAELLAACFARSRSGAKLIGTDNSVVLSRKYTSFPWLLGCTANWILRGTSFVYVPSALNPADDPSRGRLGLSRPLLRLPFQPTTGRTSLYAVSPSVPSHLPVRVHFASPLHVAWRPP
Assay: In vitro reverse transcription activity of HBV polymerase (ELISA-type, DIG/biotin nucleotides)
Assay type: biochemical
Conditions: 1 μg/ml test compound; read-out: Inhibition activity on HBV-RT (%)
testReadout: inhibition at 1 µg/mL (%)
Answers are plain numbers, in %.

Below, 3 molecules whose answers are already recorded.
CSc1ncc(C(=O)NCc2cccnc2)c(Nc2ccc3cn[nH]c3c2)n1
98
CSc1ncc(C(=O)NCCc2ccccn2)c(Nc2ccc3cn[nH]c3c2)n1
95
CSc1ncc(C(=O)NN2CCN(C)CC2)c(Nc2ccc3[nH]ncc3c2)n1
78

Continue with the next molecule.
# input Look up and report measured inhibition at 1 µg/mL for this entry: `CSc1ncc(C(=O)NCCN(C)C)c(Nc2ccc3[nH]ncc3c2)n1`
# output 80
